Entry source: patent US20240317752A1

target: BaF3 BRAF-KIAA1549 fusion cells (Homo sapiens); construct: The BRAF-KIAA1549 fusion mutant was subcloned into pMXs-IRES-Blasticidin (RTV-016, Cell Biolabs, San Diego, CA); fused on or other part: Q9HCM3 (UPF0606 protein KIAA1549); experiment: BaF3 BRAF-KIAA1549 fusion cell proliferation assay (CellTiterGlo); type: cell-based; details: 96 hours incubation, potency code
Parameter Measured: GI50

Recorded GI50, per entry:
{"columns": ["Compound", "Parameter Measured", "Observed Result"],
 "data": [
  ["Cc1ccc(NC(=O)C[C@@H]2CCO[C@@H](C(F)(F)F)C2)cc1Nc1ncccc1-c1ncnc2[nH]cnc12 (single isomer, unassigned) [IA-148]", "GI50", "20 to 100 nM"],
  ["Cc1nc2c(-c3cccnc3Nc3cc(NC(=O)c4cc(C(O)C(F)(F)F)ccn4)ccc3C)ncnc2[nH]1 (stereo not drawn) [IA-130]", "GI50", "< 20 nM"],
  ["Cc1ccc(C(=O)Nc2cc(C(F)(F)F)ccn2)cc1Nc1ncccc1-c1ncnc2[nH]cnc12 [Compound I-34]", "GI50", "20 to 100 nM"],
  ["COc1c(C(F)(F)F)ccnc1C(=O)Nc1ccc(C)c(Nc2ncccc2-c2ncnc3[nH]cnc23)c1 [IA-101]", "GI50", "< 20 nM"],
  ["COc1cc(C(=O)Nc2ccc(C)c(Nc3ncccc3-c3ncnc4[nH]cnc34)c2)ccc1Cl [Compound I-41]", "GI50", "< 20 nM"],
  ["O=C(Nc1ccc(Cl)c(Nc2ncccc2-c2ncnc3[nH]cnc23)c1)c1cc(C(F)(F)F)ccn1 [Compound I-21]", "GI50", "20 to 100 nM"]
]}

Go through the list and state GI50 for each entry.
1. Cc1ccc(NC(=O)c2cc(C(F)(F)F)ccn2)cc1Nc1nnccc1-c1ncnc2[nH]cnc12 [IA-121]
2. Cc1ccc(NC(=O)c2cccc(C(F)(F)F)c2)cc1Nc1ncccc1-c1ncnc2[nH]cnc12 [IA-145]
3. Cc1ccc(NC(=O)CC2CC(C(F)(F)F)CCO2)cc1Nc1ncccc1-c1ncnc2[nH]cnc12 (stereo not drawn) [IA-105]
4. COc1nc2c(-c3cccnc3Nc3cc(NC(=O)c4cc(C(F)(F)F)ccn4)ccc3C)ncnc2[nH]1 [IA-123]
5. Cc1ccc(NC(=O)C[C@@H]2CCC[C@@H](C(F)(F)F)C2)cc1Nc1ncccc1-c1ncnc2[nH]cnc12 (single isomer, unassigned) [IA-140]
6. Cc1ccc(C(=O)Nc2ccc(C)c(Nc3ncccc3-c3ncnc4[nH]cnc34)c2)cc1 [Compound I-27]
7. Cc1ccc(NC(=O)c2ccc(Cl)c(C#N)c2)cc1Nc1ncccc1-c1ncnc2[nH]cnc12 [Compound I-22]

Given back:
1: ≥ 500 nM; 2: < 20 nM; 3: 20 to 100 nM; 4: 20 to 100 nM; 5: < 20 nM; 6: 20 to 100 nM; 7: < 20 nM

Provide reported GI50 for each item, in the same order as listed.
1. Cc1c(F)cc(NC(=O)c2ccnc(C3(C#N)CC3)c2)cc1Nc1ncccc1-c1ncnc2[nH]cnc12 [Compound I-62]
2. Cc1ncc(C(=O)Nc2cccc(C3(C#N)CC3)c2)cc1Nc1ncccc1-c1ncnc2[nH]cnc12 [Compound I-58]

Given back:
1. < 20 nM
2. 20 to 100 nM

----------
Consider the following compounds; for each one, report its GI50.
Target: BaF3 BRAF-KIAA1549 fusion cells (Homo sapiens)
Construct: The BRAF-KIAA1549 fusion mutant was subcloned into pMXs-IRES-Blasticidin (RTV-016, Cell Biolabs, San Diego, CA); fused on or other part: Q9HCM3 (UPF0606 protein KIAA1549)
Assay: BaF3 BRAF-KIAA1549 fusion cell proliferation assay (CellTiterGlo)
Format: cell-based
Details: 96 hours incubation, potency code
Procedure: Retroviral Production: The BRAF-KIAA1549 fusion mutant was subcloned into pMXs-IRES-Blasticidin (RTV-016, Cell Biolabs, San Diego, CA). Retrovirus was produced by transfection of HEK 293T cells with the retroviral BRAF mutant expression vector pMXs-IRES-Blasticidin (RTV-016, Cell Biolabs), pCMV-Gag-Pol vector and pCMV-VSV-G-Envelope vector. Briefly, HEK 293T cells were plated in Poly-D-lysine coated 6-well plate (2.5×10^5 cells per well) and incubated overnight. […]

Past entries and their recorded results:
{"columns": ["Compound", "Experimental System", "Observed Result"],
 "data": [
  ["Cc1ccc(NC(=O)CC2CCCOCC2)cc1Nc1ncccc1-c1ncnc2[nH]cnc12 (centres unmarked)", "BaF3 BRAF-KIAA1549 fusion cells (Homo sapiens)", "100 to 500 nM"],
  ["Cc1ccc(NC(=O)c2cc(C3CC3)ccn2)cc1Nc1ncccc1-c1ncnc2[nH]cnc12", "BaF3 BRAF-KIAA1549 fusion cells (Homo sapiens)", "< 20 nM"],
  ["Cc1ccc(NC(=O)CC2CCNCCO2)cc1Nc1ncccc1-c1ncnc2[nH]cnc12 (centres unmarked)", "BaF3 BRAF-KIAA1549 fusion cells (Homo sapiens)", "≥ 500 nM"],
  ["Cc1ccc(NC(=O)c2ccnc(C3COC3)c2)cc1Nc1ncccc1-c1ncnc2[nH]cnc12", "BaF3 BRAF-KIAA1549 fusion cells (Homo sapiens)", "< 20 nM"],
  ["Cc1nc2c(-c3cccnc3Nc3cc(NC(=O)c4cc(C(F)(F)F)ccn4)ccc3C)ncnc2[nH]1", "BaF3 BRAF-KIAA1549 fusion cells (Homo sapiens)", "< 20 nM"]
]}

Dear colleague, could you send me GI50 for each of the items below? Thanks.
1. Cc1ncc(NC(=O)c2ccc(Cl)c(C#N)c2)cc1Nc1ncccc1-c1ncnc2[nH]cnc12
2. Cc1cc(NC(=O)c2cc(C(F)(F)F)ccn2)cc(Nc2ncccc2-c2ncnc3[nH]cnc23)c1C
3. Cc1ccc(NC(=O)c2ncc(C)c(C(F)(F)F)c2F)cc1Nc1ncccc1-c1ncnc2[nH]cnc12

Given back:
1: ≥ 500 nM; 2: 100 to 500 nM; 3: 20 to 100 nM

----------
biological target: BaF3 BRAF-KIAA1549 fusion cells (Homo sapiens, UniProt P15056); construct: The BRAF-KIAA1549 fusion mutant was subcloned into pMXs-IRES-Blasticidin (RTV-016, Cell Biolabs, San Diego, CA); fused on or other part: Q9HCM3 (UPF0606 protein KIAA1549); assay: BaF3 BRAF-KIAA1549 fusion cell proliferation assay (CellTiterGlo); assay type: cell-based; details: 96 hours incubation, potency code
Sequence (P15056 whole entry, change not shown, the tested form may be a part): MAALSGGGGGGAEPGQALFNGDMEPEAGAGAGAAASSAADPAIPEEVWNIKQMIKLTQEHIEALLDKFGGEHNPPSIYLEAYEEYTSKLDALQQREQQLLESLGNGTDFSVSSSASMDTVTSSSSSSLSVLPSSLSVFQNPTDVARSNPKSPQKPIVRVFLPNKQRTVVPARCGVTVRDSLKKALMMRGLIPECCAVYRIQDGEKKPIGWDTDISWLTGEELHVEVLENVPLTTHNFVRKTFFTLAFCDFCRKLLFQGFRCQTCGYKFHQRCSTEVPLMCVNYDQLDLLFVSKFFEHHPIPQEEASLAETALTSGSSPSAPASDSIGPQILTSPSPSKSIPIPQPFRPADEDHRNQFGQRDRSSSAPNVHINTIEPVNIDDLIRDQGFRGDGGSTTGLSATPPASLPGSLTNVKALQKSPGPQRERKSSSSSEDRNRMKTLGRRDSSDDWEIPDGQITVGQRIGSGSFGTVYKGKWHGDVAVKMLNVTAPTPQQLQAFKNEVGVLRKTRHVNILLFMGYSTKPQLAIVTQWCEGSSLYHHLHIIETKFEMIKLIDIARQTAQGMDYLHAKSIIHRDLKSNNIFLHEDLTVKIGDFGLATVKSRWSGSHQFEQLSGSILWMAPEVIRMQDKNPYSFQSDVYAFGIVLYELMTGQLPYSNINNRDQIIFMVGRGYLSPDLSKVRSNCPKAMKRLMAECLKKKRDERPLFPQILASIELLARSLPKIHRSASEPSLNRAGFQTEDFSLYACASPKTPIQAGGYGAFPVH
Kindly state GI50 for each of the entries shown.

Illustrative cases are given below, each with its answer.
{"columns": ["Chem Smiles", "Parameter Measured", "Observed Result"],
 "data": [
  ["Cc1ccc(NC(=O)c2ccc(C(F)(F)F)c(C#N)n2)cc1Nc1ncccc1-c1ncnc2[nH]cnc12", "GI50", "0.1 to 0.5 µM"],
  ["Cc1ccc(-c2ncnc3[nH]cnc23)c(Nc2cc(NC(=O)c3cc(C(F)(F)F)ccn3)ccc2C)n1", "GI50", "0.02 to 0.1 µM"]
]}

State recorded GI50 for all listed molecules.
1. Cc1ccc(NC(=O)c2cc(C(F)(F)F)ccn2)cc1Nc1ncccc1-c1nc(F)nc2[nH]cnc12
2. O=C(Nc1ccc(F)c(Nc2ncccc2-c2ncnc3[nH]cnc23)c1)c1cc(C(F)(F)F)ccn1
3. Cc1ncc(NC(=O)c2cncc(C(F)(F)F)c2)cc1Nc1ncccc1-c1ncnc2[nH]cnc12
4. Cc1ccc(NC(=O)c2cc(C(F)(F)F)c(OC3CNC3)cn2)cc1Nc1ncccc1-c1ncnc2[nH]cnc12

Given back:
≥ 0.5 µM
0.02 to 0.1 µM
0.02 to 0.1 µM
0.02 to 0.1 µM

----------
biological target: BaF3 BRAF-KIAA1549 fusion cells (Homo sapiens, UniProt P15056); construct: The BRAF-KIAA1549 fusion mutant was subcloned into pMXs-IRES-Blasticidin (RTV-016, Cell Biolabs, San Diego, CA); fused on or other part: Q9HCM3 (UPF0606 protein KIAA1549); assay: BaF3 BRAF-KIAA1549 fusion cell proliferation assay (CellTiterGlo); assay type: cell-based; conditions: 96 hours incubation, potency code
Give GI50 for every item shown.

{"columns": ["Compound", "Parameter Measured", "Observed Result"],
 "data": [
  ["Cc1c(F)cc(C(=O)Nc2cccc(C3(C#N)CC3)c2)cc1Nc1ncccc1-c1ncnc2[nH]cnc12 [Compound I-60]", "GI50", "< 20 nM"],
  ["Cc1ncc(NC(=O)c2cc(C(F)(F)F)ccn2)cc1Nc1ncccc1-c1ncnc2[nH]cnc12 [Compound I-16]", "GI50", "< 20 nM"],
  ["Cc1ccc(NC(=O)CN2CCCCC(F)(F)C2)cc1Nc1ncccc1-c1ncnc2[nH]cnc12 [IA-112]", "GI50", "100 to 500 nM"]
]}

Asked: For the compound Cc1ccc(NC(=O)CC2CCCNCC2)cc1Nc1ncccc1-c1ncnc2[nH]cnc12 (stereo not shown) [IA-131] , report GI50.
Given back: ≥ 500 nM
